# ASSAY TARGET: T1, recombinant HMG1 purified from E. coli as a calmodulin binding protein (CBP) fusion protein (human, UniProt A9RA84 1-215 (Papio anubis entry))
# T1 construct: also called rHMG1; rHMGB1
# T1 sequence: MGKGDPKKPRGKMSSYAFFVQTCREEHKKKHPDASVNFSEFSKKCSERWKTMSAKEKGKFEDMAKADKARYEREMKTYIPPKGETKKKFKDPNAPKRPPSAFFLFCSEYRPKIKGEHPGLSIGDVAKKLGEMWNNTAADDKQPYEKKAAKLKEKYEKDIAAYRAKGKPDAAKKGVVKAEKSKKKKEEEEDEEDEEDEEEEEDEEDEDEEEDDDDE
# ASSAY COMMENT: BIAcore, mAb immobilized, HMG1 injected, steady-state model
Assign pKd to each entry below.
In simple prose, pKd is minus the logarithm base ten of a concentration in moles per litre.

Given item anti-HMG1 antibody G16 (antibody, V domains shown) VH: EVQLLESGGGLVQPGGSLRLSCAASGFTFSWYKMTWVRQAPGKGLEWVSSISPSGGFTSYADSVKGRFTISRDNSKNTLYLQMNSLRAEDTAVYYCARDLDIRHAFDIWGQGTMVTVSS VL: DIQMTQSPGTLSLSPGESGTLSCRASESVSSRHFAWYQQKPGQAPRLLIYGASSRPTGIPDRFSGSGSGTDFTLTLSRLEPEDFAVYFCQYYGSSPYTFGGGTKVEMK , the value recorded as its pKd is 7.66

Given item anti-HMG1 antibody S10 (antibody, V domains shown) VH: EVQLLESGGGLVQPGGSLRLSCAASGFTFSWYDMWWVRQAPGKGLEWVSWIVPSGGITAYADSVKGRFTISRDNSKNTLYLQMNSLRAEDTATYYCARGNYGPSPFDYWGQGTLVTVSS VL: DIQMTQSPGTLSLSPGERATLSCRATQSVRKNFLAWYQQKPGQAPRLLIYDASSRATGIPDRFSGSGSGTDFTLTISRLEPEDFAVYYCQQYGNSPIIFGQGTRLEIK , the value recorded as its pKd is 7.27

Given item anti-HMG1 antibody S16 (antibody, V domains shown, also called ATCC PTA-6259) VH: EVQLLESGGGLVQPGGSLRLSCAASGFTFSWYSMLWVRQAPGKGLEWVSYISPSGGFTNYADSVKGRFTISRDNSKNTLYLQMNSLRAEDTAVYYCARWDYNSGWYYDHWGQGTLVTVSS VL: DIQMTQSPDTLSLSPGERATLSCRASQSVNSRNLAWYQQKPGQAPRLLIYGASTRATGIPDRFSGSVSGTEFTLTISSLQPDDFATYYCQQYNSYFTFGQGTKLEIK , the value recorded as its pKd is 7.64
